Source: patent US20190315823A1

Entries and their measured Fold increase in MCP1 cf. untreated cells follow.
Tested on: human peripheral blood mononuclear cells (MCP-1)
Experiment: SPOT-synthesized derivative screen: production of chemokine MCP-1
Assay type: cell-based
Conditions: Table 12A; No LPS
Peptide text beside a SMILES is read from it.
The answer should be written as a number, with no unit following it.

* CC[C@H](C)[C@H](NC(=O)[C@H](CCCNC(=N)N)NC(=O)[C@@H](NC(=O)[C@H](CCCCN)NC(=O)[C@@H](NC(=O)[C@@H](NC(=O)[C@H](CC(C)C)NC(=O)[C@H](CCCNC(=N)N)NC(=O)[C@@H](N)C(C)C)[C@@H](C)CC)C(C)C)C(C)C)C(=O)N[C@@H](Cc1c[nH]c2ccccc12)C(=O)N[C@@H](CCCNC(=N)N)C(=O)N[C@@H](CCCNC(=N)N)C(N)=O [Peptide 2001] (H-VRLIVKVRIWRR-NH2; N-terminus assumed) | 765

From here, focus on the item given below.
Short answer please: Fold increase in MCP1 cf. untreated cells, human peripheral blood mononuclear cells (MCP-1), entry CC[C@H](C)[C@H](NC(=O)[C@H](CCCNC(=N)N)NC(=O)[C@@H](NC(=O)[C@H](CCCCN)NC(=O)[C@@H](NC(=O)[C@@H](NC(=O)[C@@H](NC(=O)[C@H](CCCNC(=N)N)NC(=O)[C@@H](N)C(C)C)C(C)C)[C@@H](C)CC)C(C)C)C(C)C)C(=O)N[C@@H](CCCNC(=N)N)C(=O)N[C@@H](CCCNC(=N)N)C(=O)N[C@@H](CCCNC(=N)N)C(N)=O [Peptide 2004] (H-VRVIVKVRIRRR-NH2; N-terminus assumed)
340

* * *

IL1β Production values by entry
Tested on: LPS-stimulated human peripheral blood mononuclear cells (IL1-β)
Type: cell-based
Details: Table 12; cells stimulated with 10 ng/ml LPS; LPS alone 1313 (HH2 derivatives), 1927 (1018 derivatives), 2455 (1002 and hybrid peptides) pg/ml
Ends that are not written are not given here.
# unit: pg/mL | format: bare number

* HH2-G12: single substituted HH2 peptide (VQLRIRVAVIRG-NH2) | 1433

Value lookup for IL1β Production; key = 1002-V2: single substituted 1002 peptide (VVRWLIVWRIRK-NH2) [Peptide 1002-V2]
127

Please give the result for 1018-G2: single substituted 1018 peptide (VGLIVAVRIWRR-NH2) [Peptide 1018-G2] too.
127

* * *

Tested on: methicillin resistant Staphylococcus aureus (MRSA) biofilm
Conditions: approximate peptide concentration […] (around 3 μg/ml); compared to untreated samples
Method: Methods of assessment of anti-biofilm activity—Biofilm formation was initially analyzed using a static abiotic solid surface assay as described elsewhere (de la Fuente-Nunez et al., 2012). […] Peptide was added at time zero (prior to adding the diluted, overnight cultures) in varying concentrations, and the decrease in biofilm formation was recorded at 22-46 h for most bacteria. […]
Ends that are not written are not given here.
Each entry below carries its reported % Biofilm inhibition.
Write down the numeric answer in % and omit the unit.

* 1002-I7: single substituted 1002 peptide (VQRWLIIWRIRK-NH2) [Peptide 1002-I7] | 73
* 1002-V6: single substituted 1002 peptide (VQRWLVVWRIRK-NH2) [Peptide 1002-V6] | 71

State its % Biofilm inhibition on methicillin resistant Staphylococcus aureus (MRSA) biofilm: 1018-Q3: single substituted 1018 peptide (VRQIVAVRIWRR-NH2) [Peptide 1018-Q3]
12

Repeat for the following substance: HH2-R2: single substituted HH2 peptide (VRLRIRVAVIRA-NH2)
54

Same lookup for 1018-R3: single substituted 1018 peptide (VRRIVAVRIWRR-NH2) [Peptide 1018-R3] , please.
29

Could you do the same for 1002-R8: single substituted 1002 peptide (VQRWLIVRRIRK-NH2) [Peptide 1002-R8] , please?
23

Next record, please: 1002-W1: single substituted 1002 peptide (WQRWLIVWRIRK-NH2) [Peptide 1002-W1]
76

Subsequent entry: 1002-W10: single substituted 1002 peptide (VQRWLIVWRWRK-NH2) [Peptide 1002-W10]
71

* * *

Tested on: human peripheral blood mononuclear cells (MCP-1)
Assay: SPOT-synthesized derivative screen: production of chemokine MCP-1
Type: cell-based
Conditions: Table 12A; No LPS; background subtracted (21.3 pg/ml)
Method: Venous blood (20 ml) from healthy volunteers was collected in Vacutainer® collection tubes containing sodium heparin as an anticoagulant (Becton Dickinson, Mississauga, ON) in accordance with UBC ethical approval and guidelines. […] White blood cells were isolated from the buffy coat, washed twice in RPMI 1640 complete medium, and the number of peripheral blood mononuclear cells (PBMC) was determined by Trypan blue exclusion. […]
Peptide text beside a SMILES is read from it.
The entries below come with measured MCP1 values attached.
Don't forget the unit after the value.

Sample records with MCP1:
* CC[C@H](C)[C@H](NC(=O)[C@H](CCCNC(=N)N)NC(=O)[C@H](CC(C)C)NC(=O)[C@H](CCC(N)=O)NC(=O)[C@@H](N)C(C)C)C(=O)N[C@@H](CCCNC(=N)N)C(=O)N[C@H](C(=O)N[C@@H](C)C(=O)N[C@H](C(=O)N[C@H](C(=O)N[C@@H](CCCNC(=N)N)C(=O)N[C@@H](C)C(N)=O)[C@@H](C)CC)C(C)C)C(C)C [HH2] (H-VQLRIRVAVIRA-NH2; N-terminus assumed) | 896 pg/mL
* CC[C@H](C)[C@H](NC(=O)[C@H](CCCNC(=N)N)NC(=O)[C@H](Cc1c[nH]c2ccccc12)NC(=O)[C@H](CCCNC(=N)N)NC(=O)[C@@H](NC(=O)[C@H](CC(C)C)NC(=O)[C@H](Cc1c[nH]c2ccccc12)NC(=O)[C@H](CCCNC(=N)N)NC(=O)[C@H](CCC(N)=O)NC(=O)[C@@H](N)CCCCN)[C@@H](C)CC)C(=O)N[C@@H](CCCNC(=N)N)C(=O)N[C@@H](CCCCN)C(N)=O [Peptide 2010] (H-KQRWLIRWRIRK-NH2; N-terminus assumed) | 5649 pg/mL

--- query ---
What does the data say about its MCP1? Entry: CC[C@H](C)[C@H](NC(=O)[C@H](CCCNC(=N)N)NC(=O)[C@@H](NC(=O)[C@H](CCCCN)NC(=O)[C@@H](NC(=O)[C@@H](NC(=O)[C@H](CC(C)C)NC(=O)[C@H](CCCNC(=N)N)NC(=O)[C@@H](N)CCCNC(=N)N)[C@@H](C)CC)C(C)C)C(C)C)C(=O)N[C@@H](Cc1c[nH]c2ccccc12)C(=O)N[C@@H](CCCNC(=N)N)C(=O)N[C@@H](CCCNC(=N)N)C(N)=O [Peptide 2007] (H-RRLIVKVRIWRR-NH2; N-terminus assumed)
7954 pg/mL

* * *

IL1β Production values, listed per item
Tested on: LPS-stimulated human peripheral blood mononuclear cells (IL1-β)
Assay type: cell-based
Conditions: Table 12; cells stimulated with 10 ng/ml LPS; LPS alone 1313 (HH2 derivatives), 1927 (1018 derivatives), 2455 (1002 and hybrid peptides) pg/ml
Ends that are not written are not given here.
Quick note: number first, unit second.

Record excerpt, results attached:
• 1018-I12: single substituted 1018 peptide (VRLIVAVRIWRI-NH2) [Peptide 1018-I12] = 314 pg/mL
• 1018-K7: single substituted 1018 peptide (VRLIVAKRIWRR-NH2) [Peptide 1018-K7] = 1222 pg/mL
• HH2C-HH2N: derivative of HH2, 1002 and 1018 made by SPOT synthesis (VAVIRAVQLRIR-NH2) = 769 pg/mL

Consider now this further substance.
Can you look up the measured IL1β Production of HH2-K6: single substituted HH2 peptide (VQLRIKVAVIRA-NH2) for me?
1055 pg/mL

* * *

System: methicillin resistant Staphylococcus aureus (MRSA) biofilm
Conditions: approximate peptide concentration […] (around 3 μg/ml); compared to untreated samples
Ends that are not written are not given here.
measure name: % Biofilm inhibition (%)
Please give a number only; it is taken to be in %.

• 1018-W8: single substituted 1018 peptide (VRLIVAVWIWRR-NH2) [Peptide 1018-W8] = 43

Give % Biofilm inhibition (methicillin resistant Staphylococcus aureus (MRSA) biofilm) of the following substance: HH2-L5: single substituted HH2 peptide (VQLRLRVAVIRA-NH2)
58

Subsequent entry: HH2-V3: single substituted HH2 peptide (VQVRIRVAVIRA-NH2)
57

Now consider 1018-G6: single substituted 1018 peptide (VRLIVGVRIWRR-NH2) [Peptide 1018-G6] .
36

One more substance: HH2-Q5: single substituted HH2 peptide (VQLRQRVAVIRA-NH2)
25

Input HH2-I2: single substituted HH2 peptide (VILRIRVAVIRA-NH2)
54

Request: 1002-Q7: single substituted 1002 peptide (VQRWLIQWRIRK-NH2) [Peptide 1002-Q7]
45

Try 1002-K5: single substituted 1002 peptide (VQRWKIVWRIRK-NH2) [Peptide 1002-K5] next.
79
